# test.details: Caco-2 monolayer transport study (apparent permeability, Papp) of rosemary extract compounds
# settings: human, Caco-2, pH 7.4
observable: Papp A→B at 120 min, 200 μg/mL (×10⁻⁶ cm/s)

compound	unit.text	Papp A→B at 120 min, 200 μg/mL
CC(C)c1cc2c(c(O)c1O)[C@@]13CCCC(C)(C)[C@@H]1[C@H](OC3=O)[C@H]2O	×10⁻⁶ cm/s	45.9
CC(C)c1cc2c(c(O)c1O)C13CCCC(C)(C)C1C(OC3=O)C2O (stereo not shown) [Epirosmanol]	×10⁻⁶ cm/s	55.1
COc1cc(O)c2c(=O)cc(-c3ccc(O)cc3)oc2c1	×10⁻⁶ cm/s	14.9

(A) CC(C)c1cc2c(c(O)c1O)[C@@]13CCCC(C)(C)[C@@H]1C[C@@H]2OC3=O
(B) COc1ccc(-c2cc(=O)c3c(O)cc(O)cc3o2)cc1O
Determine, for A and B , which has the greater value of Papp A→B at 120 min, 200 μg/mL. Please indicate the selected item by its label.
A

====

# test.details: in vitro
# settings: human, Caco-2, pH 7.4
observable: Papp B→A at 120 min, 200 μg/mL (×10⁻⁶ cm/s)
// units = ×10⁻⁶ cm/s; emit number, no label

Could you share which Papp B→A at 120 min, 200 μg/mL value was measured for CC(C)c1cc2c(cc1O)[C@@]1(C)CCC(=O)C(C)(C)[C@@H]1CC2 [Hinokione] ?
13.6

====

# test.details: Caco-2 monolayer transport study (apparent permeability, Papp) of rosemary extract compounds
# settings: human, Caco-2, pH 7.4
observable: Papp A→B at 120 min (×10⁻⁶ cm/s)

Some entries whose results are on file:
compound	unit.text	meas.value
CC(C)c1cc2c(c(O)c1O)C13CCCC(C)(C)C1C(OC3=O)C2O (centres unmarked) [Epirosmanol]	×10⁻⁶ cm/s	1.92
CC(C)c1cc(C=O)c2c(c1O)OC(=O)[C@@]21CCCC(C)(C)[C@@H]1C=O	×10⁻⁶ cm/s	2.67
CC(C)c1cc2c(c(O)c1O)[C@@]13CCCC(C)(C)[C@@H]1C[C@@H]2OC3=O	×10⁻⁶ cm/s	0.0403

(a) CC(C)c1cc2c(c(O)c1O)[C@@]13CCCC(C)(C)[C@@H]1[C@H](OC3=O)[C@H]2O
(b) CC(C)c1cc2c(c(O)c1O)[C@@]13CCCC(C)(C)[C@@H]1[C@H](O)[C@@H]2OC3=O [Epiisorosmanol]
# compare Papp A→B at 120 min for a vs b ; return the one with the smaller value Please indicate the selected item by its label.
b
(b: 8.18 ×10⁻⁶ cm/s, a: 29.1 ×10⁻⁶ cm/s)

====

# test.details: Caco-2 monolayer transport study (apparent permeability, Papp) of rosemary extract compounds
# settings: human, Caco-2, pH 7.4
observable: Papp B→A at 120 min, 200 μg/mL (×10⁻⁶ cm/s)

Some entries whose results are on file:
molecule	Papp B→A at 120 min, 200 μg/mL (×10⁻⁶ cm/s)
CC(C)c1cc2c(c(O)c1O)[C@@]13CCCC(C)(C)[C@@H]1[C@H](O)[C@@H]2OC3=O [Epiisorosmanol]	9.23
C=C(C)[C@@H]1CC[C@]2(C(=O)O)CC[C@]3(C)[C@H](CC[C@@H]4[C@@]5(C)CC[C@H](O)[C@@](C)(CO)[C@@H]5CC[C@]43C)[C@@H]12	6.17
CC1(C)CC[C@]2(C(=O)O)CC[C@]3(C)C(=CC[C@@H]4[C@@]5(C)C[C@H](O)[C@H](O)C(C)(C)[C@@H]5CC[C@]43C)[C@@H]2C1	7.93
CC(C)c1cc(C=O)c2c(c1O)OC(=O)[C@@]21CCCC(C)(C)[C@@H]1C=O	15.9

(I) CC(C)c1cc2c(c(O)c1O)C13CCCC(C)(C)C1C(OC3=O)C2O (stereo not shown) [Epirosmanol]
(II) COc1cc2oc(-c3ccc(O)cc3)cc(=O)c2c(O)c1OC
(III) COc1ccc(-c2cc(=O)c3c(O)cc(O)cc3o2)cc1O
Please list these in order of increasing Papp B→A at 120 min, 200 μg/mL. Thank you! Arrange the labels as the request states and list them.
III, I, II
